B1: LCOR (parent)
chain: YKVKERLGTLKNPPKKKMKLMSG

Variants of: B1
Test: protein stability index of a GFP-peptide fusion (GPS, HEK-293T) (PSI 1-6); higher = more stable;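 note: lentivirally expressed fusions sorted by FACS into six bins by GFP to DsRed ratio, PSI derived from sequencing read proportions per bin multiplied by bin number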
Details: c terminus: native

[
  {
    "Residue codes": "WKVKERLGTLKNPPKKKMKLMSG [Y1W]",
    "protein stability index": 2.2
  },
  {
    "Residue codes": "YKVKERLGTLYNPPKKKMKLMSG [K11Y]",
    "protein stability index": 2.48
  },
  {
    "Residue codes": "YKVHERLGTLKNPPKKKMKLMSG [K4H]",
    "protein stability index": 2.52
  },
  {
    "Residue codes": "YKVKERLGTLKNPPKKKMKLFSG [M21F]",
    "protein stability index": 2.78
  },
  {
    "Residue codes": "YKVPERLGTLKNPPKKKMKLMSG [K4P]",
    "protein stability index": 1.35
  },
  {
    "Residue codes": "YWVKERLGTLKNPPKKKMKLMSG [K2W]",
    "protein stability index": 3.46
  },
  {
    "Residue codes": "YKVKERHGTLKNPPKKKMKLMSG [L7H]",
    "protein stability index": 1.84
  }
]

These entries and their values trace back to the supplement of paper PMC10567573.
